# assay setup: in ethanol, 293.15 K
assay metric: solubility (mole fraction)

For the compound shown here, CC(=O)c1c(C)c([N+](=O)[O-])c(C(C)(C)C)c([N+](=O)[O-])c1C , give the reported solubility (mole fraction). 0.00354

---

# assay setup: in methanol, 283.15 K
assay metric: solubility (mole fraction)
Answer with the value's number alone.

Quick one: solubility (mole fraction) for CC(=O)c1c(C)c([N+](=O)[O-])c(C(C)(C)C)c([N+](=O)[O-])c1C ? 0.00157

---

# assay setup: in ethyl acetate, 313.15 K
assay metric: solubility (mole fraction)
Returns: the value as a bare number; no unit string appended.

Bench note: what solubility (mole fraction) did CC(=O)c1c(C)c([N+](=O)[O-])c(C(C)(C)C)c([N+](=O)[O-])c1C show? 0.156
